Values compiled from PubChem BioAssay (NCI).

System: LOX IMVI melanoma
Experiment: NCI-60 one-dose screen, 48 h
Conditions: 10 µM unless noted
Method: Growth inhibition of the LOX IMVI human tumor cell line is measured as a screen for anti-cancer activity. Cells are grown in 96 well plates and exposed to the test compound for 48 hours. Compounds are tested at a single concentration, which is 10^-5 M for most compounds. The reported endpoint is percent growth (GI% or GIPRCNT), where numbers from 0 - 100% represent growth inhibition, and numbers from -100% - 0 represent cell death. For example, a value of 40 represents 60% growth inhibition. […]
Compounds without any hit were thinned out: in the full panel of roughly 83,000, 20% have a hit. Calls of active or inactive are those of the source. How the source made its calls: active means growth percent below 10; inactive means the rest.
Use one of these outcomes when replying: active, inactive

Recorded results for 5 molecules are shown here.
- molecule: "CC(=O)c1cc(C(=O)c2ccc3c(c2)Sc2ccccc2N3)n2ccccc12"
  labelValue: "inactive"
- molecule: "OCc1ccc(N2CCc3cccc(F)c3C2)cc1Cl"
  labelValue: "inactive"
- molecule: "O=C1c2cc3c(cc2-c2c1c1ccc(F)cc1c(=O)n2C[C@H](O)[C@@H](O)[C@H](O)CO)OCO3"
  labelValue: "active"
- molecule: "Cc1nn(-c2cc(=O)[nH]c3ccccc23)c(N)c1C#N"
  labelValue: "inactive"
- molecule: "CCOC(=O)c1c(C)oc2ncnc(N3CCN(C(=S)Nc4ccccc4)CC3)c12"
  labelValue: "inactive"

Query string: GET /call?item= O=C1NC(=O)C(c2ccc(Cl)cc2Cl)N1 (stereo not given) returns the recorded outcome of this test.
Result string: inactive

Query string: What is the recorded call for this molecule in the test? "C#CC(F)(F)[C@]1(O)CC[C@H]2[C@@H]3CCC4=CC(=O)CCC4=C3[C@@H](c3ccc(C4CC4)cc3)C[C@@]21C"
Result string: active

Query string: Hi, do you know how "CCN1CCN(c2nc(NCCCNc3ccnc4cc(Cl)ccc34)c3ccccc3n2)CC1" came out in this test?
Result string: active

Query string: Identify the outcome logged in this assay for the molecule shown: "CSc1nc2c(c(=O)[nH]1)C1(C(=O)Nc3ccccc31)c1c(nc(SC)[nH]c1=O)N2"
Result string: inactive

Query string: Could you kindly confirm the outcome this assay logged for "C#CCOc1ccc2ncnc(Nc3cccc(CNC(=O)CCl)c3)c2c1" ?
Result string: inactive

====

System: MDA-MB-435 melanoma
Experiment: NCI-60 one-dose screen, 48 h
Details: 10 µM unless noted
This is part of a sample that, as a whole, favours compounds with a hit. Of some 83,000 tested, about 20% had one in any assay. Activity calls are given as the source filed them. The calls were made as follows: active = growth percent below 10; inactive = the rest.
Select the correct class. Options are True for active, False for inactive and nothing else.

Example entries and their recorded answers appear below.
- compound: "CC(=O)c1cc2c(N)c(C(=O)Nc3ccccc3)sc2nc1C"
  labelValue: "True"
- compound: "Nc1n[nH]c2ccc([C@@H]3Nc4ccc5cn[nH]c5c4[C@H]4C5CCC(C5)[C@@H]34)cc12 (some centres undefined)"
  labelValue: "True"
- compound: "COc1cc2nc(N3CCCC3)nc(Nc3ccccc3)c2cc1OC"
  labelValue: "True"

Query string: Short answer needed: outcome of this test for "O=C1/C(=C/C(Cl)=C/c2ccccc2)SC(=S)N1CCc1ccc(O)cc1" ?
Result string: True

Query string: Status in this test for Cc1cc(N2CCCCCC2)nc(NC2CCCC(Nc3ccnc4cc(Cl)ccc34)C2)n1 (centres undefined) ?
Result string: True

Query string: Outcome logged for "CC1=C[C@H]2c3c(c(O)c(O)c4oc5c(C)cccc5c(=O)c34)[C@H](c3cc(O)c(O)c4oc5c(C)cccc5c(=O)c34)[C@H]2C(C)(C)C1" in this assay:
Result string: True

Query string: Lab log entry: Cc1cc(N2CCSCC2)nc(NC2CCCC(Nc3ccnc4cc(Cl)ccc34)C2)n1 (centres undefined) — outcome as called in the assay?
Result string: True

Query string: Dear colleague, could you share the recorded outcome for "O=C(N/N=C/c1c[nH]c2ccccc12)c1cc(-c2ccccc2)on1" when you have a moment?
Result string: False

Query string: Record lookup: outcome of this test for "O=C1/C(=C(/c2ccccc2)N2CCOCC2)Cc2ccccc21" ?
Result string: False

====

Test system: A549/ATCC NSCLC
Assay: NCI-60 one-dose screen, 48 h (100 = growth as untreated, 0 = no growth, -100 = all killed)
Settings: 10 µM unless noted
Compounds without any hit were thinned out: in the full panel of roughly 83,000, 20% have a hit. The source made the active and inactive calls. The calls were made as follows: active = growth percent below 10; inactive = the rest.
measurementKind: growth

- compound: "Nc1nc2ncc(CCNc3ccc(C(=O)O)cc3)nc2c(=O)[nH]1"
  growth: "105% (inactive)"

Turning to the following compound.
Query string: Under A549/ATCC NSCLC: report growth of CCOc1cc2ncc(C#N)c(Nc3ccc(OCc4cccc(F)c4)c(Cl)c3)c2cc1NC(=O)CC1CCSS1 (centres undefined) .
Result string: -69.7% (active)

====

System: IGROV1 ovarian
Assay: NCI-60 one-dose screen, 48 h
Conditions: 10 µM unless noted
The panel holds about 83,000 compounds, 20% with a hit somewhere; the sample as a whole holds those more often. The source made the active and inactive calls. How the source made its calls: active means growth percent below 10; inactive means the rest.
A correct response names exactly one class from active, inactive

Record excerpt, results attached:
- compound: "CCOC(=O)c1sc2nc(-c3cccc(OC)c3)nc(N3CCOCC3)c2c1C"
  labelValue: "inactive"
- compound: "CCC([N+](=O)[O-])S(=O)(=O)c1ccc(C)cc1 (stereo not given)"
  labelValue: "inactive"
- compound: "CC(=O)c1cc2c(N)c(C(=O)Nc3ccccc3)sc2nc1C"
  labelValue: "inactive"
- compound: "CCn1c(O)c(/C=N/NC(=O)C(C)c2ccc(CC(C)C)cc2)sc1=S (stereo not given)"
  labelValue: "inactive"

Consider the additional compound presented here.
Query string: State the result this test recorded for "COc1cc(-c2nc3cc(Cl)c(Cl)cc3[nH]2)ccc1OCC(=O)N=Nc1c(O)[nH]c2ccccc12" .
Result string: active

====

Tested on: TK-10 renal
Assay: NCI-60 one-dose screen, 48 h
Details: 10 µM unless noted
The panel holds about 83,000 compounds, 20% with a hit somewhere; the sample as a whole holds those more often. Calls of active or inactive are those of the source. Rule for the calls: active = growth percent below 10; inactive = the rest.
Log the outcome using a class from active, inactive

Query string: State the result this test recorded for CCN1CCC2(CC1)NC(=O)c1c(c3ccc(Cl)c(Cl)c3n1C)C2C#N (centres undefined) .
Result string: inactive

Query string: For "O=C1CC[C@H](c2ccc(O)c3c2C(=O)[C@@H]2O[C@@H]2C3=O)c2cccc(O)c21" , which call appears in the assay record?
Result string: active

Query string: Short answer needed: outcome of this test for "CCCOc1ccc2nc(NC(=O)OC)[nH]c2c1" ?
Result string: inactive

Query string: Which outcome was entered for the molecule CC(C)CSc1nc(N)nc2c1ncn2C1OC(CO)C(O)C1O (centres undefined) in this test?
Result string: inactive

Query string: Record lookup: outcome of this test for "COc1cc(-c2nc3ccccc3[nH]2)ccc1OCC(=O)N=Nc1c(O)[nH]c2ccc(Cl)cc12" ?
Result string: active

Query string: Status in this test for "COc1ccc(/C=C\c2cc(OC)c(OC)c(OC)c2)cc1OC(=O)c1cccc(Cn2cc(CCOC(=O)[C@H](N)Cc3cn(C)c4ccccc34)nn2)c1" ?
Result string: inactive

Query string: Entry CON1C(=O)CC[C@]2(C)[C@H]3CC[C@@H]4C([C@@]5(C)CCC(=O)O5)CC[C@@]4(C)[C@]3(C)CC[C@H]2C1(C)C (some centres undefined) : call = ?
Result string: inactive

Query string: Record request — test call for "CCCCCCN(CCCCCC)C(=N)c1ccnc2ccccc12"
Result string: inactive

Query string: I would be grateful if you could indicate the recorded call for "O=C(COc1ccc(-c2nc3cc(Cl)c(Cl)cc3[nH]2)cc1)N=Nc1c(O)[nH]c2ccccc12" .
Result string: inactive

====

Each entry below carries its reported growth.
Test system: SN12C renal
Test: NCI-60 one-dose screen, 48 h (100 = growth as untreated, 0 = no growth, -100 = all killed)
Conditions: 10 µM unless noted
About 83,000 compounds went through this panel and 20% of them were active in at least one assay; those are over-represented in the sample as a whole.
Numbers only here, please. The scale is %.

Example molecules with recorded growth:
- molecule: "COc1cc(C(=O)/C=C/c2cccnc2Nc2ccc(Cl)cc2)cc(OC)c1OC"
  testTarget: "SN12C renal"
  growth, %: -58.7
- molecule: "CC1(C)CC[C@]2(C(=O)Nc3ccccn3)CC[C@]3(C)C(=CC[C@@H]4[C@@]5(C)C/C(=C/c6cccnc6)C(=O)C(C)(C)[C@@H]5CC[C@]43C)[C@H]2C1"
  testTarget: "SN12C renal"
  growth, %: 32.6
- molecule: "O=C(COc1ccc(/C=C2\\COc3ccccc3C2=O)cc1)Nc1nccs1"
  testTarget: "SN12C renal"
  growth, %: 114
- molecule: "O=C(CCN1C(=O)/C(=C/c2ccc(Cl)cc2)SC1=S)NCCCN1CCOCC1"
  testTarget: "SN12C renal"
  growth, %: 98.5
- molecule: "O=C(CN(C(=O)Cn1c(=O)n2nnnc2c2ccccc21)c1ccccc1C(F)(F)F)Nc1ccc(C(F)(F)F)cc1"
  testTarget: "SN12C renal"
  growth, %: 100
- molecule: "Nc1n[nH]c2ccc([C@@H]3Nc4cc5c(cc4[C@H]4C6CCC(C6)[C@@H]34)C(=O)NC5)cc12 (stereo partly drawn)"
  testTarget: "SN12C renal"
  growth, %: 38.4
- molecule: "CCNC(=O)Oc1ccc(/C(=C(\\C)c2ccc(Cl)cc2)c2ccc(OCCN(CC)CC)cc2)cc1"
  testTarget: "SN12C renal"
  growth, %: 66.1

Query string: # return recorded growth for input "COc1ccc2c(c1)O/C(=C\c1cccc(OCC(=O)Nc3nc4c(s3)CCCC4)c1)C2=O"
Result string: 53.8
